Target system: Androgen receptor (Homo sapiens)
Sequence (P10275 whole entry): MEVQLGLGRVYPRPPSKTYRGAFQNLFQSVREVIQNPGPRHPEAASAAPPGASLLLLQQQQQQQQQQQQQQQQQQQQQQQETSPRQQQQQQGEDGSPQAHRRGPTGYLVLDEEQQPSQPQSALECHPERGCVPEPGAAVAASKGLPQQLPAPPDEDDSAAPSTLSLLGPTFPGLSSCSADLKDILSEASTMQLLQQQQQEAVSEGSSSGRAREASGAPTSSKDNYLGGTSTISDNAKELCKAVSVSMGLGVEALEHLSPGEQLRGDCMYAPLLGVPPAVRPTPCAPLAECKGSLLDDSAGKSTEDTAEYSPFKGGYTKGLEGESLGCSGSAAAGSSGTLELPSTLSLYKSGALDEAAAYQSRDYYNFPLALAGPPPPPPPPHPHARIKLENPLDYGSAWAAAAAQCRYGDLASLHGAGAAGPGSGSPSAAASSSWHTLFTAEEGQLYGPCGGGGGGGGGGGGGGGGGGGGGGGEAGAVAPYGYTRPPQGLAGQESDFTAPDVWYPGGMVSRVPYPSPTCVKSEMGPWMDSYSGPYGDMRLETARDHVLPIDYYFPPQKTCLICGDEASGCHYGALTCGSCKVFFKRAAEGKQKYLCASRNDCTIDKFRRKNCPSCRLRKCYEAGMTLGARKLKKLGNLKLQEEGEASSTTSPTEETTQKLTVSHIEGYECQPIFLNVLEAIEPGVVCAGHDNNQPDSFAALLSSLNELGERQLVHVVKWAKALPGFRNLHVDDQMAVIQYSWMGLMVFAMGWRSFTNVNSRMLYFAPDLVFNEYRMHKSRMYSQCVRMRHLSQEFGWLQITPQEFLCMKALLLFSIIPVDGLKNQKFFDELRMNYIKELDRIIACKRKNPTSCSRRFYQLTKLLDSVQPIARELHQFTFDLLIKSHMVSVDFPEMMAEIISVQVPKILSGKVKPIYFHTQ
Assay remarks: biochemical
Description: Displacement of [3H]mibolerone from androgen receptor expressed in CHOK1 cells
A collection of compounds and their measured pIC50
Note on units: pIC50 is unitless, being -log10 of a concentration expressed in mol/L.

| Compound | Target system | Measured quantity | Measured value |
| --- | --- | --- | --- |
| CN(C)C(=O)CCCCCCC1C[C@H]2CC(=O)CC[C@]2(C)[C@H]2CC[C@]3(C)[C@@H](O)CC[C@H]3[C@H]12 (stereo partly specified) | Androgen receptor (Homo sapiens) | pIC50 | 6.96 |
| CCCCN(C)C(=O)CCCCCCCCCCC[C@@H]1CC2CC(=O)CC[C@]2(C)[C@H]2CC[C@]3(C)[C@@H](O)CC[C@H]3[C@H]12 (stereo partly specified) | Androgen receptor (Homo sapiens) | pIC50 | 5.00 |
| CCN(CC)C(=O)CCCCCCCC1C[C@H]2CC(=O)CC[C@]2(C)[C@H]2CC[C@]3(C)[C@@H](O)CC[C@H]3[C@H]12 (stereo partly specified) | Androgen receptor (Homo sapiens) | pIC50 | 6.92 |
| C[C@]12CC[C@H]3[C@@H]([C@H](CCCCCCC[S+]([O-])CCCC(F)(F)C(F)(F)F)CC4CC(=O)CC[C@@]43C)[C@@H]1CC[C@@H]2O (stereo partly specified) | Androgen receptor (Homo sapiens) | pIC50 | 6.02 |

Here is the next item to consider.
Req: So what's the measured pIC50 for this one? CCCNC(=O)CCCCCCCC1C[C@H]2CC(=O)CC[C@]2(C)[C@H]2CC[C@]3(C)[C@@H](O)CC[C@H]3[C@H]12 (stereo partly specified)
Resp: 5.80

Values compiled from ChEMBL document CHEMBL1144524.
